Data provenance: paper PMC12135072

Test system: HCT116 (ATCC – CCL-247, colon carcinoma)
Test: MTT cell viability assay, HCT116
Format: cell-based
Settings: Homo sapiens, HCT-116, read-out: IC50 HCT116
Readout Type: IC50 (µM)
I only need the number, in µM, no unit after it.

// returns IC50 for Cc1cc2c(c(=O)o1)C(c1ccc(OCc3cn(-c4ccc(Cl)cc4)nn3)cc1)C(C#N)=C(N)O2 (stereo not shown) [Compound 17b] with HCT116 (ATCC – CCL-247, colon carcinoma); value = 47.4

The measured IC50 that CCc1nccn1-c1ccc(C2C(C#N)=C(N)OC3=C2C(=O)CC(C)(C)C3)cc1 (stereo not shown) showed for HCT116 (ATCC – CCL-247, colon carcinoma) is 137
